Target: Rod cGMP-specific 3',5'-cyclic phosphodiesterase subunit alpha (Homo sapiens)
Sequence (P16499 whole entry): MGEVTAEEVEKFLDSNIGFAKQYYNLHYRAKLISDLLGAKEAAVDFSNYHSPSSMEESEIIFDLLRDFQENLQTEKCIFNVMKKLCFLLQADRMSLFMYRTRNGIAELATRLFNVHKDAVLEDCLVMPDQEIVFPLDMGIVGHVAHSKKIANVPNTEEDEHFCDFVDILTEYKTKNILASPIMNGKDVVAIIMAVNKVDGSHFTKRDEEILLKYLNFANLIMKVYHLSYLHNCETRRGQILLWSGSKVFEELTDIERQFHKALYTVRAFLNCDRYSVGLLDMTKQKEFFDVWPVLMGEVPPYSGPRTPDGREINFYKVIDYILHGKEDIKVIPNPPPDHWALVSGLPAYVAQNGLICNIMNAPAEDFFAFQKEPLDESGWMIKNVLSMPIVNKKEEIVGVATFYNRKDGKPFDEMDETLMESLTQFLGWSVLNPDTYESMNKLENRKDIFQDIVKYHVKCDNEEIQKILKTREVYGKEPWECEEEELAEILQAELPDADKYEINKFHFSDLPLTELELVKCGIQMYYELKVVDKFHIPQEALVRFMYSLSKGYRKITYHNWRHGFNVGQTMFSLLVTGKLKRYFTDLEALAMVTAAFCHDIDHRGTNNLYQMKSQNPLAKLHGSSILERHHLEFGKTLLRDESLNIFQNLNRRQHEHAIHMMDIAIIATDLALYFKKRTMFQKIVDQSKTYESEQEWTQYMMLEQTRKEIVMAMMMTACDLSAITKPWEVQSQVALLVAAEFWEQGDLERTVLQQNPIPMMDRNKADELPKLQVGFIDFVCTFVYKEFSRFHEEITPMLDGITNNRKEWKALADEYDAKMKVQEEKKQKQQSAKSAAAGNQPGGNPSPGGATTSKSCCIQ
Assay: Inhibition of PDE6
I'd appreciate it if you marked entries yes (1) when IC50 is lower than 40 nM and no (0) when it is not.

Hello, is IC50 of the following compound strictly smaller than 40 nM? CCCOCCn1c(=O)c(NCC(=O)N2CCN(CC)CC2)nc2ncc(-c3ccc(OC)nc3)cc21
no (0)

Hello, is IC50 of the following compound strictly smaller than 40 nM? CCCOCCn1c(=O)c(NCc2cnccn2)nc2cnc(-c3ccc(OC)nc3)cc21
yes (1)

Hello, is IC50 of the following compound strictly smaller than 40 nM? CCCOCCn1c(=O)c(NCC(=O)O)nc2ncc(-c3ccc(OC)nc3)cc21
no (0)

Hello, is IC50 of the following compound strictly smaller than 40 nM? CCCOCCn1c(=O)c(NCC(=O)N2CCN(C)CC2)nc2ncc(-c3ccc(OC)nc3)cc21
no (0)

Hello, is IC50 of the following compound strictly smaller than 40 nM? CCCOCCn1c(=O)c(NC[C@H](C)O)nc2cnc(-c3ccc(OC)nc3)cc21
yes (1)

Hello, is IC50 of the following compound strictly smaller than 40 nM? CCCOCCn1c(=O)c(NCCCO)nc2cnc(-c3ccc(OC)nc3)cc21
yes (1)

Hello, is IC50 of the following compound strictly smaller than 40 nM? CCCOCCn1c(=O)c(NCC(=O)N2CCN(CC)CC2)nc2cnc(-c3ccc(OC)nc3)cc21
no (0)

Hello, is IC50 of the following compound strictly smaller than 40 nM? CCCOCCn1c(=O)c(NCC(=O)NC)nc2cnc(-c3ccc(OC)nc3)cc21
yes (1)

Hello, is IC50 of the following compound strictly smaller than 40 nM? CCCOCCn1c(=O)c(NCCCO)nc2ncc(-c3ccc(OC)nc3)cc21
no (0)

Hello, is IC50 of the following compound strictly smaller than 40 nM? CCCOCCn1c(=O)c(NC[C@@H](C)O)nc2cnc(-c3ccc(OC)nc3)cc21
yes (1)

Hello, is IC50 of the following compound strictly smaller than 40 nM? CCCOCCn1c(=O)c(NCC(N)=O)nc2ncc(-c3ccc(OC)nc3)cc21
no (0)

Hello, is IC50 of the following compound strictly smaller than 40 nM? CCCOCCn1c(=O)c(NCC(=O)N(C)C)nc2cnc(-c3ccc(OC)nc3)cc21
no (0)

Hello, is IC50 of the following compound strictly smaller than 40 nM? CCCOCCn1c(=O)c(NC[C@H](C)O)nc2ncc(-c3ccc(OC)nc3)cc21
no (0)

Hello, is IC50 of the following compound strictly smaller than 40 nM? CCCOCCn1c(=O)c(NCC(=O)N2CCOCC2)nc2cnc(-c3ccc(OC)nc3)cc21
yes (1)

Hello, is IC50 of the following compound strictly smaller than 40 nM? CCCOCCn1c(=O)c(NCCN(C)C)nc2cnc(-c3ccc(OC)nc3)cc21
no (0)

Hello, is IC50 of the following compound strictly smaller than 40 nM? CCCOCCn1c(=O)c(NCCN(C)C)nc2ncc(-c3ccc(OC)nc3)cc21
no (0)

Hello, is IC50 of the following compound strictly smaller than 40 nM? CCCOCCn1c(=O)c(NCC(=O)N2CCNCC2)nc2cnc(-c3ccc(OC)nc3)cc21
no (0)

Hello, is IC50 of the following compound strictly smaller than 40 nM? CCCOCCn1c(=O)c(N[C@H]2CC[C@H](O)CC2)nc2cnc(-c3ccc(OC)nc3)cc21
yes (1)

Hello, is IC50 of the following compound strictly smaller than 40 nM? CCCOCCn1c(=O)c(NCC(=O)O)nc2cnc(-c3ccc(OC)nc3)cc21
no (0)

Hello, is IC50 of the following compound strictly smaller than 40 nM? CCCOCCn1c(=O)c(NCC2CCCO2)nc2cnc(-c3ccc(OC)nc3)cc21 (racemic)
yes (1)

Hello, is IC50 of the following compound strictly smaller than 40 nM? CCCOCCn1c(=O)c(NCCN2CCOCC2)nc2ncc(-c3ccc(OC)nc3)cc21
no (0)

Hello, is IC50 of the following compound strictly smaller than 40 nM? CCCOCCn1c(=O)c(NCCNCCO)nc2cnc(-c3ccc(OC)nc3)cc21
no (0)

Hello, is IC50 of the following compound strictly smaller than 40 nM? CCCOCCn1c(=O)c(N[C@H](C)CO)nc2ncc(-c3ccc(OC)nc3)cc21
no (0)

Hello, is IC50 of the following compound strictly smaller than 40 nM? CCCOCCn1c(=O)c(NCCOCC)nc2cnc(-c3ccc(OC)nc3)cc21
yes (1)

Hello, is IC50 of the following compound strictly smaller than 40 nM? CCCOCCn1c(=O)c(NCCOCC)nc2ncc(-c3ccc(OC)nc3)cc21
no (0)

Hello, is IC50 of the following compound strictly smaller than 40 nM? CCCOCCn1c(=O)c(N[C@H](C)CO)nc2cnc(-c3ccc(OC)nc3)cc21
yes (1)

Hello, is IC50 of the following compound strictly smaller than 40 nM? CCCOCCn1c(=O)c(NCC(=O)N2CCOCC2)nc2ncc(-c3ccc(OC)nc3)cc21
no (0)

Hello, is IC50 of the following compound strictly smaller than 40 nM? CCCOCCn1c(=O)c(NCC2CCOCC2)nc2ncc(-c3ccc(OC)nc3)cc21
yes (1)

Hello, is IC50 of the following compound strictly smaller than 40 nM? CCCOCCn1c(=O)c(NCC(N)=O)nc2cnc(-c3ccc(OC)nc3)cc21
no (0)

Hello, is IC50 of the following compound strictly smaller than 40 nM? CCCOCCn1c(=O)c(N[C@@H](C)CO)nc2ncc(-c3ccc(OC)nc3)cc21
no (0)

Hello, is IC50 of the following compound strictly smaller than 40 nM? CCCOCCn1c(=O)c(N[C@H](CC)CO)nc2cnc(-c3ccc(OC)nc3)cc21
yes (1)

Hello, is IC50 of the following compound strictly smaller than 40 nM? CCCOCCn1c(=O)c(NCC(=O)N2CCN(C)CC2)nc2cnc(-c3ccc(OC)nc3)cc21
yes (1)

Hello, is IC50 of the following compound strictly smaller than 40 nM? CCCOCCn1c(=O)c(NCCO)nc2cnc(-c3ccc(OC)nc3)cc21
yes (1)

Hello, is IC50 of the following compound strictly smaller than 40 nM? CCCOCCn1c(=O)c(NCCN2CCOCC2)nc2cnc(-c3ccc(OC)nc3)cc21
yes (1)

Hello, is IC50 of the following compound strictly smaller than 40 nM? CCCOCCn1c(=O)c(N[C@H]2CC[C@H](O)CC2)nc2ncc(-c3ccc(OC)nc3)cc21
yes (1)

Hello, is IC50 of the following compound strictly smaller than 40 nM? CCCOCCn1c(=O)c(NCCN)nc2cnc(-c3ccc(OC)nc3)cc21
no (0)
